Entry source: PubChem BioAssay

test: HTB85 osteosarcoma cell growth inhibition, synergistic combos for chromothripsis tumors, BGB or cisplatin IC20 combos (AID 1671453); settings: HTB85 osteosarcoma cells, drug combinations, measured here: with BGB IC20, at 5 µM, stronger effect = higher value;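 note: cells exposed for 96 hours before readout; 0% = vehicle DMSO and 100% = high DMSO killing control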
Measured inhibition of individual entries

- compound: "CO[C@H]1/C=C/O[C@@]2(C)Oc3c(C)c(O)c4c(O)c(c(C=NN5CCN(C)CC5)c(O)c4c3C2=O)NC(=O)/C(C)=C\\C=C\\[C@H](C)[C@H](O)[C@@H](C)[C@@H](O)[C@@H](C)[C@H](OC(C)=O)[C@@H]1C"
  inhibition [%]: 19.8
- compound: "NC(=O)c1ncn(C2OC(CO)C(O)C2O)n1 (stereo unspecified)"
  inhibition [%]: 10.8
- compound: "O=C(Nc1ccncc1)c1cc([N+](=O)[O-])ccc1Cl"
  inhibition [%]: 1.89
- compound: "CC(C)N=c1cc2n(-c3ccc(Cl)cc3)c3ccccc3nc-2cc1Nc1ccc(Cl)cc1"
  inhibition [%]: -21.7
- compound: "CCc1c2c(nc3ccc(O)cc13)-c1cc3c(c(=O)n1C2)COC(=O)[C@]3(O)CC"
  inhibition [%]: 98.1
- compound: "O=C(Nc1ccccc1)c1ccccc1O"
  inhibition [%]: 16.9

* * *

assay: sensitizers of A549 cells to miR-34 induction, primary screen, imaging, A549 dox-inducible miR-34, nuclei and caspase counts (AID 1347080); conditions: A549 miR-34 inducible, Hoechst nuclei count, 48 h; measured here: relative caspase fold change +Dox/-Dox
value.type: fold change

- compound: "C[C@H]1O[C@@H](O[C@H]2[C@@H](O)C[C@H](O[C@H]3[C@@H](O)C[C@H](O[C@H]4CC[C@]5(C)C6C[C@@H](O)[C@]7(C)[C@@H](C8=CC(=O)OC8)CC[C@]7(O)C6CC[C@@H]5C4)O[C@@H]3C)O[C@@H]2C)C[C@H](O)[C@@H]1O (stereo partly drawn)"
  experimental.result: 2.23
- compound: "CC(O)(CC(=O)O)CC(=O)O"
  experimental.result: 1.16
- compound: "NCCOB(c1ccccc1)c1ccccc1"
  experimental.result: 0.886
- compound: "CC(=O)Nc1cc2ccccc2oc1=O"
  experimental.result: 0.792
- compound: "CN(C)CCCO[C@H]1[C@@H](C(O)CO)OC2OC(C)(C)O[C@@H]21 (stereo partly drawn)"
  experimental.result: 2.91
- compound: "CO/N=C(/C(=O)NC1C(=O)N2C(C(=O)OC(C)OC(C)=O)=C(COC(N)=O)CSC12)c1ccco1 (stereo not drawn)"
  experimental.result: 1.77
- compound: "CN(C)[C@@H]1C(=O)C(C(=O)NCN2CCCC2)=C(O)[C@@]2(O)C(=O)C3=C(O)c4c(O)cccc4[C@@](C)(O)C3CC12 (stereo partly drawn)"
  experimental.result: 0.92
- compound: "CC(=O)OCC(=O)[C@H]1CCC2C3CCC4=CC(=O)CC[C@]4(C)C3CC[C@@]21C (stereo partly drawn)"
  experimental.result: 2.3

* * *

test system: R275C/beta1; assay: modulators of BK channel variants, profiling panel, selectivity assay, cell-based, U2OS BacMam, thallium flux, beta subunits (AID 1259406); conditions: at 30 µM;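 note: initial slope of Thallos dye fluorescence rise after thallium is added; log ratio against the mean of 0.3% DMSO vehicle wells on the same plate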
Active and inactive are the calls of the source.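 The calls were made as follows: active = thallium flux through the channel raised or lowered by more than 3 SD from vehicle-only wells, actives on both sides; inactive = the rest.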
Measured log fold change Tl+ flux of individual entries

- chemical.smiles: "ONC=Nc1nonc1-c1cccnc1"
  log fold change Tl+ flux: "0.016 (inactive)"
- chemical.smiles: "O=C1CCC(=O)N1c1ccc(S(=O)(=O)NCCCN2CCN(Cc3ccccc3)CC2)cc1"
  log fold change Tl+ flux: "0.0158 (inactive)"
- chemical.smiles: "Cc1nc(-c2ccc(S(=O)(=O)N3CCCN(c4ccc(C(F)(F)F)cn4)CC3)s2)cs1"
  log fold change Tl+ flux: "-0.0131 (inactive)"
- chemical.smiles: "CC(C)n1c(SCC(=O)c2ccccc2)nc2cc(Cl)ccc21"
  log fold change Tl+ flux: "-0.35 (active)"
- chemical.smiles: "CC(=O)[C@@]1(O)CC[C@H]2[C@@H]3C[C@H](C)C4=CC(=O)CC[C@]4(C)[C@H]3CC[C@@]21C"
  log fold change Tl+ flux: "0.0286 (inactive)"

* * *

experiment: HTB85 osteosarcoma cell growth inhibition, synergistic combos for chromothripsis tumors, BGB or cisplatin IC20 combos (AID 1671453); settings: HTB85 osteosarcoma cells, drug combinations, measured here: with cisplatin IC20, at 0.5 µM, stronger effect = higher value;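 note: cells exposed for 96 hours before readout; 0% = vehicle DMSO and 100% = high DMSO killing control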

- chemical.smiles: "O=c1cc(-c2cccc3c2Sc2ccccc2S3)oc(N2CCOCC2)c1"
  inhibition [%]: -8.83
- chemical.smiles: "Cc1c(-c2cnccn2)ssc1=S"
  inhibition [%]: -19.3
- chemical.smiles: "CCc1c2c(nc3ccc(O)cc13)-c1cc3c(c(=O)n1C2)COC(=O)[C@]3(O)CC"
  inhibition [%]: 99.1
- chemical.smiles: "O=C(Nc1ccncc1)c1cc([N+](=O)[O-])ccc1Cl"
  inhibition [%]: -20.9
- chemical.smiles: "CO[C@H]1/C=C/O[C@@]2(C)Oc3c(C)c(O)c4c(O)c(c(C=NN5CCN(C)CC5)c(O)c4c3C2=O)NC(=O)/C(C)=C\\C=C\\[C@H](C)[C@H](O)[C@@H](C)[C@@H](O)[C@@H](C)[C@H](OC(C)=O)[C@@H]1C"
  inhibition [%]: -3.74
- chemical.smiles: "O=c1[nH]c(-c2ccc(C(F)(F)F)cc2)nc2c1CSCC2"
  inhibition [%]: -30.4

* * *

test: sensitizers of A549 cells to miR-34 induction, primary screen, imaging, A549 dox-inducible miR-34, nuclei and caspase counts (AID 1347080); details: A549 miR-34 inducible, Hoechst nuclei count, 48 h; measured here: total cells with miR-34 induction; stronger effect = lower value

- molecule: "CN[C@@H]1C(O)[C@@H](O[C@@H]2[C@@H](O)[C@H](O[C@H]3OC(CN)=CC[C@H]3N)[C@@H](N)C[C@H]2N)OC[C@]1(C)O (stereo partly drawn)"
  cell count: 11400
- molecule: "C[C@H]1O[C@@H](O[C@H]2[C@@H](O)C[C@H](O[C@H]3[C@@H](O)C[C@H](O[C@H]4CC[C@@]5(C)[C@H](CC[C@@H]6[C@@H]5C[C@@H](O)[C@]5(C)C(C7=CC(=O)OC7)CC[C@]65O)C4)O[C@@H]3C)O[C@@H]2C)C[C@H](O)[C@@H]1O (stereo partly drawn)"
  cell count: 266
- molecule: "C=C[C@H]1CN2CC[C@H]1C[C@@H]2[C@H](O)c1ccnc2ccc(OC)cc12"
  cell count: 10900

* * *

experiment: differential killing of epithelial or mesenchymal cells, primary screen, imaging, PC-3E GFP, TEM4-18 mCherry, co-culture (AID 1345086); conditions: imaging cell counts, at 1 µM, actives lie on both sides, counts scaled to control wells, 1 = unselective;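 note: cells exposed to compound for 72 h before imaging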;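 for red/green cell ratio (normalised): normalised mesenchymal count divided by normalised epithelial count so high means epithelial killing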
Measured red/green cell ratio (normalised) of individual entries
value.type: red/green cell ratio (normalised)

- compound: "COC(=O)C[C@@H]1C2(C)C(=O)[C@@H](CC3=C4CC(=O)O[C@@H](c5ccoc5)[C@]4(C)CCC32)[C@H](OC(C)=O)C1(C)C (stereo not given in full)"
  value.type: "red/green cell ratio (normalised)"
  experimental.result: 1.06
- compound: "Nc1ccc(S(=O)(=O)[O-])cc1.Nc1ccc(S(=O)(=O)[O-])cc1.[Zn+2]"
  value.type: "red/green cell ratio (normalised)"
  experimental.result: 0.95
- compound: "O=C(Cc1ccncc1)c1ccc(F)cc1"
  value.type: "red/green cell ratio (normalised)"
  experimental.result: 1.16
- compound: "COC(=O)/C=C/C(=O)OC"
  value.type: "red/green cell ratio (normalised)"
  experimental.result: 1.23
- compound: "CC(=O)OCC1=C[C@]2(O)CC3=C(CC24O[C@@H]4C1=O)[C@@]1(C)CCCC(C)(C)[C@@H]1CC3 (stereo not given in full)"
  value.type: "red/green cell ratio (normalised)"
  experimental.result: 1.02

* * *

experiment: differential killing of epithelial or mesenchymal cells, primary screen, imaging, PC-3E GFP, TEM4-18 mCherry, co-culture (AID 1345086); conditions: imaging cell counts, measured here: mesenchymal TEM4-18 mCherry cell survival, at 1 µM;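 note: cells exposed to compound for 72 h before imaging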
value.type: normalised cell number

- molecule: "OC[C@H]1O[C@H](Oc2cc(O)cc(/C=C/c3ccc(O)cc3)c2)[C@H](O)[C@@H](O)[C@@H]1O"
  experimental.result: 1.03
- molecule: "CC(=O)[C@@]1(O)CCC2C3C=C(Cl)C4=CC(=O)[C@@H]5CC5[C@]4(C)C3CC[C@@]21C (stereo not given in full)"
  experimental.result: 0.88
- molecule: "Cc1ccc([C@H](C)CC(=O)N2C(=S)O[C@H]3Cc4ccccc4[C@H]32)cc1"
  experimental.result: 1
- molecule: "C[N+](C)(C)C[C@H](O)CC(=O)[O-]"
  experimental.result: 0.98
- molecule: "CC(=O)OCC(=O)[C@@]12OC3(CCCC3)O[C@@H]1CC1C3CCC4=CC(=O)C=C[C@]4(C)[C@@]3(F)[C@@H](O)C[C@@]12C (stereo not given in full)"
  experimental.result: 1.46
